Sourced from a melting point compilation (Tetko et al.; mined from patent text by program, amines drawn as free bases though some values may be those of a salt)

// melting point lookup, one value per entry

molecule	melting point
Cc1cccc(-c2nc3cccnn3c2-c2ccnc(N)n2)c1	250 to 251 °C

Query :: Using the record for COC1=CC(=O)OC1C(O)c1ccccc1C(F)(F)F (stereo not given) , report its melting point.
Result :: 126 to 128 °C

Query :: Using the record for `O=C(C=CCN1CCC(O)(c2ccc(Cl)cc2)CC1)c1ccc(F)cc1` , report its melting point.
Result :: 97 to 97.5 °C

Query :: Using the record for CC1CN(c2c(F)c(N)c3c(=O)c(C(=O)O)cn(C4CC4)c3c2OC(F)F)CCN1 (stereo not given) , report its melting point.
Result :: 283 to 286 °C

Query :: Using the record for `NC(=O)Cc1ccc(-c2cnc3[nH]c(=O)n(CC4CCCCC4)c3n2)cc1` , report its melting point.
Result :: 272 to 274 °C
